Tested on: IGROV1 ovarian
EXPERIMENT_NOTES: NCI-60 one-dose screen, 48 h (100 = growth as untreated, 0 = no growth, -100 = all killed)
MEASUREMENT_CONTEXT: 10 µM unless noted
About 83,000 compounds went through this panel and 20% of them were active in at least one assay; those are over-represented in the sample as a whole.
// classify: if (growth < 40%) rule met else rule not met

O=C1CCc2ccccc2N1 :: rule not met
Cc1ccc2nc3nc4ccc[nH]c4cc3c2c1 :: rule not met
O=C(O)c1cc(N=Nc2ccc(-c3ccc(N=Nc4c(S(=O)(=O)O)cc5ccc(Nc6ccccc6)cc5c4O)cc3)cc2)ccc1O :: rule not met
Cc1ccc(C(=O)O)o1 :: rule not met
CCOC(=O)C1CCN(S(=O)(=O)/N=C2/NC(=O)NC2=C(Cl)Cl)CC1 :: rule met

Now examine the next entry.
hey, is growth for C=C(C)[C@@H]1CC[C@]2(C(=O)OCCOCCOCC[P+](c3ccccc3)(c3ccccc3)c3ccccc3)CC[C@]3(C)[C@H](CC[C@@H]4[C@@]5(C)CC[C@H](OC(=O)C(Cl)Cl)C(C)(C)[C@@H]5CC[C@]43C)[C@@H]12 lower than 40% or not? rule met

* * *

Tested on: IGROV1 ovarian
EXPERIMENT_NOTES: NCI-60 one-dose screen, 48 h (100 = growth as untreated, 0 = no growth, -100 = all killed)
MEASUREMENT_CONTEXT: 10 µM unless noted
Compounds without any hit were thinned out: in the full panel of roughly 83,000, 20% have a hit.
MEASUREMENT_KIND: growth (%)
Entry rule: numbers only, all in %.

growth of COc1ccc2[nH]c3nc4cnccc4cc3c2c1 , assay on IGROV1 ovarian, is 89.3

growth of COc1cc2c(Nc3ccc(NC(=O)Nc4ccc(Cl)c(C(F)(F)F)c4)c(Cl)c3)ncnc2cc1OCCCN1CCN(C)CC1 , assay on IGROV1 ovarian, is -2.58

growth of COCCOC(=O)COc1ccc(OC)cc1 , assay on IGROV1 ovarian, is 101

growth of O=C(Nc1cccc(-c2cccc(F)c2)c1)C1CCN(Cc2cccc3cccnc23)CC1 , assay on IGROV1 ovarian, is 62.7

growth of CC(/C=C/c1ccccc1)=N/NC(=O)c1ccncc1 , assay on IGROV1 ovarian, is 103

growth of FC(F)(F)c1ccc2c(Nc3cccc(C4CC(c5ccccc5)=NN4c4ccc(Cl)cc4)c3)ccnc2c1 (centres undefined) , assay on IGROV1 ovarian, is 20.1

growth of Cc1nn(-c2ccc(-c3ccc(OC(F)(F)F)cc3)cc2)c2nc(-c3ccccc3)nc(N)c12 , assay on IGROV1 ovarian, is 99.3

growth of COCCc1n(Cc2ccc3ccccc3c2)c2ccccc2[n+]1Cc1ccc2ccccc2c1 , assay on IGROV1 ovarian, is -63.4

* * *

molecules and their reported growth
Tested on: U251 CNS
EXPERIMENT_NOTES: NCI-60 one-dose screen, 48 h (100 = growth as untreated, 0 = no growth, -100 = all killed)
MEASUREMENT_CONTEXT: 10 µM unless noted
This is part of a sample that, as a whole, favours compounds with a hit. Of some 83,000 tested, about 20% had one in any assay.
Entry rule: numbers only, all in %.

Below are worked cases with known answers.
COCCc1n(Cc2ccc3ccccc3c2)c2ccccc2[n+]1Cc1ccc2ccccc2c1 :: -89.8
COc1ccc2c(c1)/C(=C1\S/C(=N/c3nnc(C)s3)NC1=O)C(=O)N2Cc1ccc(Cl)cc1 :: 26
N#CC1C(c2ccc(Cl)cc2)=Nc2c(c(-c3ccccc3)nn2-c2ccccc2)C12C(=O)Nc1ccc(Cl)cc12 (centres undefined) :: 18.6
Cc1nn(-c2ccc(-c3ccc(OC(F)(F)F)cc3)cc2)c2nc(-c3ccccc3)nc(N)c12 :: 85.5

Please turn your attention to the following entry.
Measured growth of C#CCOC(=O)[C@]1(C)CCC[C@]2(C)[C@H]3C[C@H]4C(C(C)C)=C[C@]3(CC[C@H]21)[C@@H]1C(=O)CCC(=O)[C@@H]14 : 87.6
